assay: Microsomal metabolic stability assay; assay type: in vitro ADME; conditions: pH 7.4; human liver microsomes, 0.5 mg/mL protein, 1 μM compound; read-out: Human LM Clint
measured.parameter: microsomal CLint at 1 μM (µL/min/mg)

# compound, microsomal CLint at 1 μM [µL/min/mg]
records = [
    ("[2H]C([2H])([2H])NC(=O)c1cnc(NC(=O)C2CC2)cc1Nc1ccc2cnn(CC)c2c1OC", 19.4),
    ("[2H]C([2H])([2H])NC(=O)c1cnc(NC(=O)C2CC2)cc1Nc1ccc2cnn(CC(F)(F)F)c2c1OC", 40),
    ("[2H]C([2H])([2H])NC(=O)c1cnc(NC(=O)C2CC2)cc1Nc1nn(CCCOC)c2ccn(CC(F)(F)F)c(=O)c12", 16.7),
    ("[2H]C([2H])([2H])NC(=O)c1cnc(NC(=O)C2CC2)cc1Nc1ccn2ncc(C#N)c2c1OC", 36.9),
    ("[2H]C([2H])([2H])NC(=O)c1cnc(NC(=O)C2CC2)cc1Nc1cn(C)c2c(F)cn(CC(F)F)c(=O)c12", 15.2),
]

1 = [2H]C([2H])([2H])NC(=O)c1cnc2cc1Nc1cc(cc(-c3ncn(C)n3)c1OC)COCc1nc(ccc1C)N2
2 = [2H]C([2H])([2H])NC(=O)c1cnc(NC(=O)C2CC2)cc1Nc1cn(CCOC)c2ccn(C(C)C(F)(F)F)c(=O)c12 (stereo not shown)
Input line: Which has the higher microsomal CLint at 1 μM, 1 or 2 ? Your answer should be the label of the entry you select.
Output line: 2
(2: 64.4 µL/min/mg, 1: 12.7 µL/min/mg)

---

Target: Ba/F3-FL-TYK2-P760L cells (Homo sapiens, UniProt P29597, P760L, cells depend on it)
Construct: BaF3-FL-T2P760L (nM)
Sequence (P29597 whole entry P760L): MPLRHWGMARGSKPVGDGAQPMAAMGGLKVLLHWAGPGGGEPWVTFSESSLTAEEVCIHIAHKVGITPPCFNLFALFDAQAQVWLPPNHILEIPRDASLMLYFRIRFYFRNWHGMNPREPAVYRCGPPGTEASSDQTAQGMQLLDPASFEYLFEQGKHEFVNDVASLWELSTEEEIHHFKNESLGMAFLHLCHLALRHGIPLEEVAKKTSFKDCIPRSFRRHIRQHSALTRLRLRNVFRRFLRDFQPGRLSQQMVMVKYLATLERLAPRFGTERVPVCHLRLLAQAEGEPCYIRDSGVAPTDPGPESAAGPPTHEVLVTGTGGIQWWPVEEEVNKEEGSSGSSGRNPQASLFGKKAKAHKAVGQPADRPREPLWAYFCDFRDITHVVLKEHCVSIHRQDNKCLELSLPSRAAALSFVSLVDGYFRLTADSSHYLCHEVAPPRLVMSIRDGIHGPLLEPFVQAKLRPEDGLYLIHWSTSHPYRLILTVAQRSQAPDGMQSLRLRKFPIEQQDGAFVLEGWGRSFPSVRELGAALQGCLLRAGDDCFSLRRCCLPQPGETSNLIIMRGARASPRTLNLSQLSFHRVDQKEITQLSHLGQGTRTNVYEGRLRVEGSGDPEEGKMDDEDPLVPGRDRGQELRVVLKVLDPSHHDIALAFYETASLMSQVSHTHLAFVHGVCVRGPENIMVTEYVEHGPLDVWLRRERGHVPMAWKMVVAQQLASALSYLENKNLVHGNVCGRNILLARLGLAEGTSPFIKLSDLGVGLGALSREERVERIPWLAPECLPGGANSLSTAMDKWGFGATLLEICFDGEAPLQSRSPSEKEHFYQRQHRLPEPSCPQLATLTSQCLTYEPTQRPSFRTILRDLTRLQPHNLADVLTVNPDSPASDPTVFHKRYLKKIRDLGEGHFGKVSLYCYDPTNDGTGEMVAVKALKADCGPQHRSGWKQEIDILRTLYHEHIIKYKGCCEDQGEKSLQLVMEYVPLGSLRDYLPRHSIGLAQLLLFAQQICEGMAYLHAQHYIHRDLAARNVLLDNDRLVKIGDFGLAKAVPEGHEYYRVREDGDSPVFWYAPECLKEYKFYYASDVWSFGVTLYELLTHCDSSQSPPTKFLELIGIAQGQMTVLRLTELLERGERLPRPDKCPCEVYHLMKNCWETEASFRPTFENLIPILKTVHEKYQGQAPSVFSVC
Assay: Anti-proliferative assay, Ba/F3-FL-TYK2-P760L cells (Cell-Titer Glo)
Type: cell-based
Details: 72 h, read-out: BaF3-FL-T2P760L IC50
Method: Anti-Proliferative Assay Dimerization domain of Tel protein fused with JAK kinase domain was permanently transduced into Ba/F3 cells, whose proliferation is dependent on JAK activity in the absence of IL-3 induction. […] The viability was measured by cellular ATP determination using the Cell-Titer Glo luciferase reagent (Promega). The Luminescence value was recorded by a multi-label reader Envision (PerkinElmer).
measured.parameter: GI50 (nM)

Previously resolved entries follow.
# molecule, GI50 (nM)
measured = [
    ("[2H]C([2H])([2H])NC(=O)c1cnc(Nc2ccn(C)n2)cc1Nc1ccn2ncc(C#N)c2c1OC", 70.7),
    ("[2H]C([2H])([2H])NC(=O)c1cnc(NC(=O)C2CC2)cc1Nc1csc2cnn(C(C)C)c(=O)c12", 189),
    ("[2H]C([2H])([2H])NC(=O)c1cnc(NC(=O)C2CC2)cc1Nc1cn(C)c2ccn([C@H]3CCOC3)c(=O)c12", 1100),
]

a = CNC(=O)c1cnc(Nc2ccc(F)cn2)cc1Nc1cccc(C(F)(F)F)c1OC
b = [2H]C([2H])([2H])NC(=O)c1nnc2cc1Nc1cc(cc(-c3ncn(C4CC4)n3)c1OC)COCc1cc(F)cc(n1)N2
Input line: For a and b , which recorded GI50 is lower? Your answer should be the label of the entry you select.
Output line: b
(b: 46.9 nM, a: 627 nM)

1 = [2H]C([2H])([2H])NC(=O)c1cnc(Nc2cnn(C)c2)nc1Nc1ccc2cnn(CC)c2c1OC([2H])([2H])[2H]
2 = [2H]C([2H])([2H])NC(=O)c1cnc(NC(=O)C2CC2)cc1Nc1cn(C)c2ccn(C(C)C(F)(F)F)c(=O)c12 (stereo not shown) [Example 190]
Input line: Which has the higher GI50, 1 or 2 ? Your answer should be the label of the entry you select.
Output line: 1

---

molecular target: JAK1-JH2 domain (Homo sapiens, UniProt P23458); construct: IC50 on JH2 domain activity (nM); assay: Binding activity test for JH2 domain of JAK1 (Tb-antibody/tracer FRET)
Sequence (P23458 583-855 limits assumed): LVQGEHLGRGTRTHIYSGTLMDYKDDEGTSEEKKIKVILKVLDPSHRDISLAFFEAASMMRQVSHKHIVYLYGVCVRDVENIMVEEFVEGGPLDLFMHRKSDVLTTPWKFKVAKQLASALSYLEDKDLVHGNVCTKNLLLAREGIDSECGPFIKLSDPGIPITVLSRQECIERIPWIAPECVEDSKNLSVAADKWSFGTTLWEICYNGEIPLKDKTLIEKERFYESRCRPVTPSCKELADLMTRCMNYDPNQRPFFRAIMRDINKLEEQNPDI
measured.parameter: IC50 (nM)

Previously resolved entries follow.
# molecule, IC50, nM
records = [
    ("[2H]C([2H])([2H])NC(=O)c1cnc(NC(=O)C2CC2)cc1Nc1ccn2ncc(C(C)C#N)c2c1OC (single isomer, unassigned) [Example 251A]", 97.2),
    ("[2H]C([2H])([2H])NC(=O)c1cnc(NC(=O)C2CC2)cc1Nc1ccn2ncc(COC)c2c1OC [Example 226]", 56.5),
    ("[2H]C([2H])([2H])NC(=O)c1cnc(Nc2ccc(F)cn2)cc1Nc1ncc2cnn(CC)c2c1OC [Example 263]", 25.4),
    ("[2H]C([2H])([2H])NC(=O)c1cnc(Nc2ccc(F)cn2)cc1Nc1ncc2cnn(C([2H])([2H])[2H])c2c1OC [Example 277]", 61.4),
]

P = [2H]C([2H])([2H])NC(=O)c1cnc(NC(=O)C2CC2)cc1Nc1cn(C)c2ncn([C@H](C)C(F)(F)F)c(=O)c12 (single isomer, unassigned) [Example 234A]
Q = [2H]C([2H])([2H])NC(=O)c1cnc(NC(=O)C2CC2)cc1Nc1cn(CC)c2ncn([C@@H](C)C(F)(F)F)c(=O)c12 (single isomer, unassigned) [Example 254B]
Input line: Which has the higher IC50, P or Q ? Your answer should be the label of the entry you select.
Output line: Q
(Q: 252 nM, P: 24.4 nM)

---

test: Microsomal metabolic stability assay; format: in vitro ADME; conditions: pH 7.4; rat liver microsomes, 0.5 mg/mL protein, 1 μM compound; read-out: Rat LM T½
measured.parameter: half-life at 1 μM (min)

# molecule, measured.parameter, unit.tag, val
data = [
    ("[2H]C([2H])([2H])NC(=O)c1nnc2cc1Nc1cc(cc(-c3ncn(C)n3)c1OC)COCc1cc(F)cc(n1)N2", "half-life at 1 μM", "min", 63.2),
    ("[2H]C([2H])([2H])NC(=O)c1cnc(NC(=O)C2CC2)cc1Nc1csc2cnn(CC(F)(F)F)c(=O)c12", "half-life at 1 μM", "min", 53),
]

A = [2H]C([2H])([2H])NC(=O)c1cnc(NC(=O)C2CC2)cc1Nc1cn(C)c2ncn([C@H](C)C(F)(F)F)c(=O)c12 (single isomer, unassigned) [Example 234A]
B = [2H]C([2H])([2H])NC(=O)c1cnc(NC(=O)C2CC2)cc1Nc1cnn2ccn(CC(F)(F)F)c(=O)c12
Input line: Which has the higher half-life at 1 μM, A or B ? Your answer should be the label of the entry you select.
Output line: A
(A: 39.3 min, B: 12.6 min)

I = [2H]C([2H])([2H])NC(=O)c1cnc(NC(=O)C2CC2)cc1Nc1nn(CC)c2ccn(CC(F)(F)F)c(=O)c12
II = [2H]C([2H])([2H])NC(=O)c1nnc2cc1Nc1cc(cc(-c3ncn(C4CC4)n3)c1OC)COCc1nc(ccc1F)N2
III = [2H]C([2H])([2H])NC(=O)c1nnc(NC(=O)C2CC2)cc1Nc1csc2ccn(CC)c(=O)c12
Input line: Put the entries in order of half-life at 1 μM, starting with the largest number. List the labels in the requested order.
Output line: II, I, III

a = [2H]C([2H])([2H])NC(=O)c1cnc(NC(=O)C2CC2)cc1Nc1cn(C)c2ncn(CC(F)(F)F)c(=O)c12
b = [2H]C([2H])([2H])NC(=O)c1cnc(Nc2ccncn2)cc1Nc1cc(F)c2cnn(CC)c2c1OC
Input line: For a and b , which recorded half-life at 1 μM is lower? Your answer should be the label of the entry you select.
Output line: b
(b: 13.2 min, a: 158 min)

I = [2H]C([2H])([2H])NC(=O)c1cnc(Nc2ccncn2)cc1Nc1ccc2cnn(C([2H])([2H])[2H])c2c1OC
II = [2H]C([2H])([2H])NC(=O)c1cnc2cc1Nc1cc(cc(-c3ncn(C)n3)c1OC)COCc1cc(C(F)(F)F)cc(n1)N2
Input line: For I and II , which recorded half-life at 1 μM is lower? Your answer should be the label of the entry you select.
Output line: I
(I: 15.3 min, II: 418 min)

A = [2H]C([2H])([2H])NC(=O)c1cnc(Nc2cccc(C#N)n2)cc1Nc1cn(C)c2c(Cl)cn(CC)c(=O)c12
B = [2H]C([2H])([2H])NC(=O)c1cnc(Nc2ccc(F)cn2)cc1Nc1ccn2ncc(C#N)c2c1OC
C = [2H]C([2H])([2H])NC(=O)c1cnc(Nc2cc(C)nc(C)n2)cc1Nc1cc(F)c2cnn(CC)c2c1OC
D = CNC(=O)c1nnc(NC(=O)C2CC2)cc1Nc1cn(C)c2ccn(C)c(=O)c12
Input line: List the 4 entries from lowest half-life at 1 μM to highest half-life at 1 μM value. List the labels in the requested order.
Output line: A, C, D, B

I = [2H]C([2H])([2H])NC(=O)c1cnc(Nc2cc(F)c(F)cn2)cc1Nc1cn(C)c2c(F)cn(C)c(=O)c12
II = [2H]C([2H])([2H])NC(=O)c1cnc(Nc2ccc(F)cn2)cc1Nc1cn(C)c2ccn(CC)c(=O)c12
Input line: Which has the higher half-life at 1 μM, I or II ? Your answer should be the label of the entry you select.
Output line: II
(II: 19.1 min, I: 12.1 min)

a = [2H]C([2H])([2H])NC(=O)c1cnc(Nc2ccc(F)cn2)cc1Nc1cn(CCOC)c2ccn(CC)c(=O)c12
b = [2H]C([2H])([2H])NC(=O)c1cnc(NC(=O)C2CC2)cc1Nc1csc2cnn(C(C)C)c(=O)c12
c = [2H]C([2H])([2H])NC(=O)c1cnc(NC(=O)C2CC2)cc1Nc1cn(CC)c2ncn([C@H](C)C(F)(F)F)c(=O)c12 (single isomer, unassigned) [Example 254A]
Input line: List the 3 entries from lowest half-life at 1 μM to highest half-life at 1 μM value. List the labels in the requested order.
Output line: a, c, b
(a: 19.1 min, c: 35.1 min, b: 60.1 min)

P = [2H]C([2H])([2H])NC(=O)c1nnc2cc1Nc1cc(cc(-c3ncn(C)n3)c1OC)CN(C)Cc1nc(ccc1F)N2
Q = [2H]C([2H])([2H])NC(=O)c1cnc(NC(=O)C2CC2)cc1Nc1ccn2ncc(C#N)c2c1OC
Input line: Which has the higher half-life at 1 μM, P or Q ? Your answer should be the label of the entry you select.
Output line: Q
